- assay-method-text: Toxicokinetic evaluation in dogs
- Assay type: in vivo
- experimental-setup: female, beagle, dog, blood, po, 6 mg/kg/day, female dogs, 6 mg/kg/day oral, Day 0
- Description: Eighteen male and eighteen female beagle dogs were received from Ridglan Farms, Mt. Horeb, Wis. […] Each group consisted of four males and four females. […] The animals were observed twice daily for mortality and moribundity. […] Individual body weights were recorded weekly, beginning approximately two weeks prior to test article administration (study week-2). Mean body weights and mean body weight changes were calculated for each corresponding interval. […]
property: Cmax
Mention the unit after the number when you answer.

Lookup result for Clc1ccc([C@]23CNCC2C3)cc1Cl (single isomer, unassigned; (+)) ; measured Cmax: 5.12 µg/mL
